Record form. Attribute: pKi. Fill in for each entry.
Target: mouse TAAR1 (Mus musculus)
Construct: expressed in transfected cells; host or cells: HEK 293 cells (membrane preparations)
Sequence (Q923Y8 whole entry): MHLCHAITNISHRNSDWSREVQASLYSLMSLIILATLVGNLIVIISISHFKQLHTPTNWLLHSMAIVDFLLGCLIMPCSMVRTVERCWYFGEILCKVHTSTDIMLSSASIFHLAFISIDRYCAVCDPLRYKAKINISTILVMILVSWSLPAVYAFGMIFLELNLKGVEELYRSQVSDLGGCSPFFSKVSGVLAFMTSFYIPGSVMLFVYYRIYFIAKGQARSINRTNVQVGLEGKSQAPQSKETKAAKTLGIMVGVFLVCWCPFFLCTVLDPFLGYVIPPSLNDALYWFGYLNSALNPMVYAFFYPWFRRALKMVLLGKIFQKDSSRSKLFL
Assay: Radioligand binding at mouse TAAR1 ([3H]RO5166017)
Please keep in mind that pKi is minus log10 of the molar concentration; only the number is needed.

input: Provide only the value of recorded pKi for CCCOc1c(OC)cc(CC(C)N)cc1OC (centres unmarked)
output: 5.74

input: Provide only the value of recorded pKi for COc1cc(CC(C)N)cc(OC)c1OCCCF (centres unmarked)
output: 5.55

====

Target: h5-HT1A receptor (Homo sapiens)
Sequence (P08908 1-422): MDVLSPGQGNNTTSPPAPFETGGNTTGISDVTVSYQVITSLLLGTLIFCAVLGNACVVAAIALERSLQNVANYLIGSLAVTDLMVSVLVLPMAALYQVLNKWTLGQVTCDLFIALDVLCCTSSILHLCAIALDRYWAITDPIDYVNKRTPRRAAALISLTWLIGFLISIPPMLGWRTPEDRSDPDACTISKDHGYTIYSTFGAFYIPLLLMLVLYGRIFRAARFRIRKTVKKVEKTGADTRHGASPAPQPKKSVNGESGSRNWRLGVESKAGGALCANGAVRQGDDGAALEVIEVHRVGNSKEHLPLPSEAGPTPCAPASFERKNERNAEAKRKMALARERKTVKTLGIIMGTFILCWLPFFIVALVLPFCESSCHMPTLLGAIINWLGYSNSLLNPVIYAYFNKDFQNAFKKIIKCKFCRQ
Record form. Attribute: Ki. Fill in for each entry.

input: Provide only the value of recorded Ki for COc1cc(CCN)cc(OC)c1OC(CF)CF [compound 23]
output: > 5.6 µM

input: Provide only the value of recorded Ki for COc1cc(CCN)cc(OC)c1OCC(F)F [compound 17]
output: > 5.6 µM

input: Provide only the value of recorded Ki for COc1cc(CCN)cc(OC)c1OC(C)C [compound 22, 3,5-dimethoxy-4-isopropoxyphenethylamine]
output: > 5.6 µM

input: Provide only the value of recorded Ki for COc1cc(CC(C)N)cc(OC)c1OCCF (centres unmarked) [compound 20]
output: > 5.6 µM

input: Provide only the value of recorded Ki for C=CCOc1c(OC)cc(CC(C)N)cc1OC (centres unmarked) [compound 31, 4-allyloxy-3,5-dimethoxyamphetamine]
output: > 5.6 µM

input: Provide only the value of recorded Ki for COc1cc(CCN)cc(OC)c1OC1CC1 [compound 29]
output: 4 µM

input: Provide only the value of recorded Ki for COc1cc(CCN)cc(OC)c1OCCCF [compound 25]
output: > 5.6 µM

input: Provide only the value of recorded Ki for COc1cc(CC(C)N)cc(OC)c1OCC(F)F (centres unmarked) [compound 19]
output: > 5.6 µM

input: Provide only the value of recorded Ki for COc1cc(CC(C)N)cc(OC)c1OC (centres unmarked) [compound 6, 3,4,5-trimethoxyamphetamine]
output: > 5.6 µM

input: Provide only the value of recorded Ki for CCCOc1c(OC)cc(CC(C)N)cc1OC (centres unmarked) [compound 28, 3,5-dimethoxy-4-propyloxyamphetamine]
output: > 5.6 µM

input: Provide only the value of recorded Ki for COc1cc(CCN)cc(OC)c1OC(F)F [compound 12]
output: 2.5 µM

====

Target: h5-HT2A receptor (Homo sapiens, UniProt P28223)
Construct: expressed in transfected cells; host or cells: HEK 293 cells (membrane preparations)
Sequence (P28223 whole entry): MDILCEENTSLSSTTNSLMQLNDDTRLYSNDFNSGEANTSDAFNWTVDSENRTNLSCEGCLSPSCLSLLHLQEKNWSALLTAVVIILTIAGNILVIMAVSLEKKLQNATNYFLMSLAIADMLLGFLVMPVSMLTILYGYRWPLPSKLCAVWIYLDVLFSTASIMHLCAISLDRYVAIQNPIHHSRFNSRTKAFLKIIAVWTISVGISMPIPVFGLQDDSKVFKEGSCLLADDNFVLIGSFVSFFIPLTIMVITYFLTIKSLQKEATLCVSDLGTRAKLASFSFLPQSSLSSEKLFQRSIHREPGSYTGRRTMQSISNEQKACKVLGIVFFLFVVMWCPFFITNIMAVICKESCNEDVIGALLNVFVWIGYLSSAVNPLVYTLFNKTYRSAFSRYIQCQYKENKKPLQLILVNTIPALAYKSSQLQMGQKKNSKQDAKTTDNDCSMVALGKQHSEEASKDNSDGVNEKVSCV
Test: Radioligand binding at h5-HT2A receptor ([3H]ketanserin)
Settings: binding ratio
Record form. Attribute: Selectivity 5-HT2A vs. 5-HT2C. Fill in for each entry.
Give your answer as a number; write no unit.

input: // fetch Selectivity 5-HT2A vs. 5-HT2C; item: COc1cc(CC(C)N)cc(OC)c1OCC(F)F (stereo not drawn) ; system: h5-HT2A receptor (Homo sapiens, UniProt P28223)
output: 1.7

input: // fetch Selectivity 5-HT2A vs. 5-HT2C; item: C=C(C)COc1c(OC)cc(CCN)cc1OC ; system: h5-HT2A receptor (Homo sapiens, UniProt P28223)
output: 0.9

input: // fetch Selectivity 5-HT2A vs. 5-HT2C; item: COc1cc(CCN)cc(OC)c1OCc1ccccc1 ; system: h5-HT2A receptor (Homo sapiens, UniProt P28223)
output: 2.9

input: // fetch Selectivity 5-HT2A vs. 5-HT2C; item: COc1cc(CCN)cc(OC)c1OCCC(F)(F)F ; system: h5-HT2A receptor (Homo sapiens, UniProt P28223)
output: 1.1

input: // fetch Selectivity 5-HT2A vs. 5-HT2C; item: CCCOc1c(OC)cc(CC(C)N)cc1OC (stereo not drawn) ; system: h5-HT2A receptor (Homo sapiens, UniProt P28223)
output: 2.0

input: // fetch Selectivity 5-HT2A vs. 5-HT2C; item: C=CCOc1c(OC)cc(CC(C)N)cc1OC (stereo not drawn) ; system: h5-HT2A receptor (Homo sapiens, UniProt P28223)
output: 1.7

input: // fetch Selectivity 5-HT2A vs. 5-HT2C; item: COc1cc(CCN)cc(OC)c1OC1CC1 ; system: h5-HT2A receptor (Homo sapiens, UniProt P28223)
output: 1.3

input: // fetch Selectivity 5-HT2A vs. 5-HT2C; item: COc1cc(CCN)cc(OC)c1OC(F)(F)F ; system: h5-HT2A receptor (Homo sapiens, UniProt P28223)
output: 1.0

input: // fetch Selectivity 5-HT2A vs. 5-HT2C; item: CCOc1c(OC)cc(CC(C)N)cc1OC (stereo not drawn) ; system: h5-HT2A receptor (Homo sapiens, UniProt P28223)
output: 1.3
